target-or-system: T1, 4H3625-AA
T1 chain: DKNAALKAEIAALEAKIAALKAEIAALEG
assay: two-hybrid library CCmax;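 also: natural log of median RNA to DNA barcode read ratio; higher means stronger binding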
condition-label: mean of both orientations
readout-type: interaction score

(Q) Using the record for DENAALEAKIAALKAKIAALKAKNAALKG [4H1392-AA] , report its interaction score.
(A) -0.223

A = DENAALKAENAALEAKIAALKAKIAALKG [4H1710-AA]
B = DKNAALKAEIAALEAENAALEAKIAALEG [4H3605-AA]
(Q) When A and B are compared, which has the higher number for interaction score? Your answer should be the label attached to the chosen record.
(A) A
(A: -0.181, B: -0.874)
